Target sequence: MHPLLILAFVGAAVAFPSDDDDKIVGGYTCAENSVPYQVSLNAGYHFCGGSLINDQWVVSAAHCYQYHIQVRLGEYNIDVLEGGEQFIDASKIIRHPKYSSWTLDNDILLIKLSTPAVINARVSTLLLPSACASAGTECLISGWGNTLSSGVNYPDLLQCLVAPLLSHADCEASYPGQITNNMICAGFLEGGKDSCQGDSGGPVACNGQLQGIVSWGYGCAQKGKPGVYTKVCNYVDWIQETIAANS
metric: Ki (nM)
Answers are plain numbers, in nM.

-- ask // lookup Ki for N=C(N)N1CCC[C@@H](CNC(=O)C[C@H](NS(=O)(=O)c2ccc3ccccc3c2)C(=O)N(CC(=O)O)C2CC2)C1 [NAPSAGATRAN ANHYDROUS]
-- reply 1900

###

# measurement_description: Oral bioavailability in dog
# Type: ADME, organism-based, Canis lupus familiaris
# condition_context: in vivo
metric: bioavailability (%)
One number for each entry, in %.

molecule: N[C@H]1CC[C@H](CNC(=O)[C@@H]2CCCN2C(=O)C2(O)c3ccccc3-c3ccccc32)CC1
metric: bioavailability
quantitative_readout: 74

Kindly give each listed record's bioavailability.
1. Cc1c(O)cccc1C(=O)N[C@@H](CSc1ccccc1)[C@H](O)CN1C[C@H]2CCCC[C@H]2C[C@H]1C(=O)NC(C)(C)C
2. NC1CCC(CNC(=O)[C@@H]2CCCN2C(=O)[C@H](N)C(C2CCCCC2)C2CCCCC2)CC1 (stereo not given in full)
3. CNC1CCN(C(=O)C[C@@H](Cc2ccccc2)C(=O)N[C@@H](CSC)C(=O)N[C@@H](CC2CCCCC2)[C@@H](O)C(=O)OC(C)C)CC1

-- reply
1. 31
2. 90
3. 60

-- ask // lookup bioavailability for CC1=CCN(C(=O)[C@H](Cc2ccc(C(=N)N)cc2)NS(=O)(=O)c2ccc3c(c2)CN(C)CC3)[C@@H](C(=O)O)C1
-- reply 45

###

# target_desc: Neutrophil elastase (Homo sapiens, UniProt P08246)
# Sequence (P08246 whole entry): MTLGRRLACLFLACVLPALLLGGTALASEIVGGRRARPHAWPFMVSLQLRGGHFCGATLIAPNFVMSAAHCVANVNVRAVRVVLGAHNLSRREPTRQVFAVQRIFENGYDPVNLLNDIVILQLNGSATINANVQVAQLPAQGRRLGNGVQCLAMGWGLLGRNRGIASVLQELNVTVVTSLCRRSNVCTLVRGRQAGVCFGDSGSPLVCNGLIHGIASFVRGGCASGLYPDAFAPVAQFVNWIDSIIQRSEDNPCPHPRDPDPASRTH
metric: Ki (nM)
Answers are plain numbers, in nM.

-- ask // lookup Ki for CC(SC(=O)c1cccs1)C(=O)NC1CCSC1 (stereo unspecified)
-- reply 1380

###

# measurement_description: Cmax value in the period of […] hr after dosing.
# Assay type: ADME, organism-based
# condition_context: in vivo
metric: Cmax at 8 h

-- ask // lookup Cmax at 8 h for Cc1cccc(C)c1OCC(=O)N[C@@H](Cc1ccccc1)[C@@H](O)C[C@H](Cc1ccccc1)NC(=O)[C@H](C(C)C)N1CCCNC1=O
-- reply < 100 ng/mL

###

# target_desc: UniProt:P00734
# measurement_description: Binding affinity against plasma thrombin
# Format: cell-free
Where a name gives a salt, the structure may show the parent alone.
metric: Ki (nM)
One number for each entry, in nM.

-- ask // lookup Ki for N=C(N)c1ccc2cc(OC(=O)c3ccc(NC4=NCCN4)cc3)ccc2c1 [SEPIMOSTAT MESYLATE]
-- reply 2500

###

# target_desc: Prothrombin (Homo sapiens, UniProt P00734)
metric: pIC50
Numbers only, as −log10 of the molar value.

-- ask // lookup pIC50 for N=C(N)c1ccc2cc(OC(=O)c3ccc(N=C(N)N)cc3)ccc2c1
-- reply 5.72

###

# target_desc: Cathepsin D (Homo sapiens, UniProt P07339)
# Sequence (P07339 65-162 limits assumed): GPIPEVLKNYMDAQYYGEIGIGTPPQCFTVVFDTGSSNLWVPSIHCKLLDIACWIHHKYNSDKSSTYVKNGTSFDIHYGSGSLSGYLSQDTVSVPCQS
# Sequence (P07339 169-412 limits assumed): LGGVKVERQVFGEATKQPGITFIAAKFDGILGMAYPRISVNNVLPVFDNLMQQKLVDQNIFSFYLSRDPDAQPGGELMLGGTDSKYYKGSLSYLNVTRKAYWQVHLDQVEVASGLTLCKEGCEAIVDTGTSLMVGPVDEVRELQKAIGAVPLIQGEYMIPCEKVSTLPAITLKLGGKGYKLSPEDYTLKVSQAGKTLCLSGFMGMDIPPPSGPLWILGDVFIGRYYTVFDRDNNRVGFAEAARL
# measurement_description: Inhibitory concentration against Human cathepsin D.
metric: IC50 (nM)
Answers are plain numbers, in nM.

-- ask // lookup IC50 for CC(C)C[C@H](NC(=O)[C@H](C)NC(=O)C[C@H](O)[C@H](Cc1ccccc1)NC(=O)[C@@H](NC(=O)c1ccccn1)C(C)C)C(N)=O
-- reply 21

###

# measurement_description: Cmax value in the period of […] hr after dosing, when administered with ritonavir.
# Type: ADME, organism-based
# condition_context: in vivo
metric: Cmax at 8 h
Answer format reminder: number followed by unit.

-- ask // lookup Cmax at 8 h for Cc1cccc(C)c1OCC(=O)N[C@@H](Cc1ccccc1)[C@@H](O)C[C@H](Cc1ccccc1)NC(=O)[C@H](C(C)C)N1CCCNC1=O [LOPINAVIR]
-- reply 5500 ng/mL

###

# measurement_description: Inhibitory concentration against Aspartic proteases.
metric: pIC50
One number for each entry, as −log10 of the molar value.

-- ask // lookup pIC50 for CC(C)C[C@H](NC(=O)[C@H](C)NC(=O)C[C@H](O)[C@H](Cc1ccccc1)NC(=O)[C@@H](NC(=O)c1ccccn1)C(C)C)C(N)=O
-- reply 9.25

###

# measurement_description: Cmax value of the compound
# Assay type: ADME, organism-based
# condition_context: in vivo
metric: Cmax (ng/mL)
Give bare numbers, in ng/mL.

-- ask // lookup Cmax for COc1cc(C(C)C)c2c(c1)S(=O)(=O)N(COC(=O)c1c(Cl)ccc(OCCN3CCOCC3)c1Cl)C2=O
-- reply 470

###

# target_desc: Kallikrein-1 (Homo sapiens, UniProt P06870)
# Sequence (P06870 whole entry): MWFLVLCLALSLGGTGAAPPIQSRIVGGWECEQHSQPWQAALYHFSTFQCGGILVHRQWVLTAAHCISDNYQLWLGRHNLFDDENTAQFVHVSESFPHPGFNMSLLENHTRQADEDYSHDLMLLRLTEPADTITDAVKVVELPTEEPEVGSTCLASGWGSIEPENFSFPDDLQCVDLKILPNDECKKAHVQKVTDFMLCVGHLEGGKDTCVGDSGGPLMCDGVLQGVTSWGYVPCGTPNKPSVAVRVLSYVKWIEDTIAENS
Where a name gives a salt, the structure may show the parent alone.
metric: Ki (nM)
Give bare numbers, in nM.

-- ask // lookup Ki for N=C(N)c1ccc2cc(OC(=O)c3ccc(NC4=NCCN4)cc3)ccc2c1 [SEPIMOSTAT MESYLATE]
-- reply 610

###

# target_desc: Caspase-1 (Homo sapiens)
# Sequence (P29466 120-297 limits assumed): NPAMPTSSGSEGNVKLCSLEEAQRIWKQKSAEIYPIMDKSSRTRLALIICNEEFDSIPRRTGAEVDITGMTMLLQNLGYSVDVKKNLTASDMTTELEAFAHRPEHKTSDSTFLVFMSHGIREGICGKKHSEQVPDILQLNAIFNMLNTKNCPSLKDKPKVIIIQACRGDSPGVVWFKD
# Sequence (P29466 317-404 limits assumed): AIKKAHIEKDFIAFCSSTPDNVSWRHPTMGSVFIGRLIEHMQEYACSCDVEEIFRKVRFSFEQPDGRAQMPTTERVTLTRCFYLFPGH
metric: pIC50
Give bare numbers, as −log10 of the molar value.

-- ask // lookup pIC50 for CC(=O)N[C@@H](CC(=O)O)C(=O)N[C@H]1CCC[C@H]2SC[C@@H](C(=O)N[C@H]3CC(=O)OC3O)N2C1=O (stereo partly specified)
-- reply 4.98

###

# measurement_description: Oral bioavailability in dog
# Format: ADME, organism-based, Canis lupus familiaris
# condition_context: in vivo, read-out: Bioavailabiility
metric: bioavailability
Answer format reminder: number followed by unit.

-- ask // lookup bioavailability for CC(C)(C)NC(=O)[C@@H]1CN(Cc2cccnc2)CCN1C[C@@H](O)C[C@@H](Cc1ccccc1)C(=O)N[C@H]1c2ccccc2C[C@H]1O.O
-- reply 90%

###

# target_desc: UniProtKB P08254
# Sequence (P08254 whole entry): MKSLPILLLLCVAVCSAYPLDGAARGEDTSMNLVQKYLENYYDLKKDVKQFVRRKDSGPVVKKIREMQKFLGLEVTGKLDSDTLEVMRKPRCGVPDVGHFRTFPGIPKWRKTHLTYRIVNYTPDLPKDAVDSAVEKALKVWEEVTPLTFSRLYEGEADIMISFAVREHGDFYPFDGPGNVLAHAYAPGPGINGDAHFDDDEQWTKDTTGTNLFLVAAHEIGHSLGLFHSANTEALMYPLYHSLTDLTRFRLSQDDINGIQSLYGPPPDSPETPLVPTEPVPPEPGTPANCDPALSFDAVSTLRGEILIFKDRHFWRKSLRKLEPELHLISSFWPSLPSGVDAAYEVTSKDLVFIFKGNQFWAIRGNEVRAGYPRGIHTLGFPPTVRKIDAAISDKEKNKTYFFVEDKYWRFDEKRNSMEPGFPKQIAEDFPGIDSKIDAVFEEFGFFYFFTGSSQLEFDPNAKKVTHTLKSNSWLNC
metric: Ki (nM)
Give bare numbers, in nM.

-- ask Form field - read-out: Ki; system: UniProtKB P08254; submitted item: O=C(NO)C1(CS(=O)(=O)c2ccc(Oc3ccc(Cl)cc3)cc2)CCOCC1 [CTS-1027]
-- reply 9.3

###

# target_desc: 72 kDa type IV collagenase (Homo sapiens, UniProt P08253)
# Sequence (P08253 whole entry): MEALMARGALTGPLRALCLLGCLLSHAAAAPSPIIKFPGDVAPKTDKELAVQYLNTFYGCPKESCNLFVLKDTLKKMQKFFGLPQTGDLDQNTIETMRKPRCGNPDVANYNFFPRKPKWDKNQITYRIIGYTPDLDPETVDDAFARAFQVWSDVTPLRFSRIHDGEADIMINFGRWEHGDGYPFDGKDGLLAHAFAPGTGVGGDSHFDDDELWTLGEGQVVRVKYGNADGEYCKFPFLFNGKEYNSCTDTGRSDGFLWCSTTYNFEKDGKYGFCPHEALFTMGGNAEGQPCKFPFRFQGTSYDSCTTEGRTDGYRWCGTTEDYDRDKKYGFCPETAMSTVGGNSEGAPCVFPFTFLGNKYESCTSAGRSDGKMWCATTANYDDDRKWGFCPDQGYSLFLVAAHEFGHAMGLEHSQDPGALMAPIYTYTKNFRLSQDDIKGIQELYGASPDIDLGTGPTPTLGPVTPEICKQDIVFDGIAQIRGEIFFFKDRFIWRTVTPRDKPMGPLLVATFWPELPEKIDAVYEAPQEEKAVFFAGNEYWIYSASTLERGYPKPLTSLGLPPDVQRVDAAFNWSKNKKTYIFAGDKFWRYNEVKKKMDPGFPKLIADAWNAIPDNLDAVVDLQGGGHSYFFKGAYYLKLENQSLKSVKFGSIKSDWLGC
pKi: −log10 of the molar value.
metric: pKi

-- ask // lookup pKi for CNC(=O)[C@@H]1CCCCN(C(=O)OC(C)(C)C)CCC[C@H](C(=O)NO)[C@@H](CC(C)C)C(=O)N1
-- reply > 8.52

###

# measurement_description: Bioavailability in rat
# Type: ADME, organism-based
# condition_context: in vivo
metric: bioavailability (%)
One number for each entry, in %.

-- ask // lookup bioavailability for CC(C)[C@H](NC(=O)c1ccc2ccccc2n1)C(=O)N[C@@H](Cc1ccccc1)[C@H](O)CN1CC[C@@H](OCc2ccncc2)C[C@H]1C(=O)NC(C)(C)C
-- reply 37

###

# target_desc: UniProt Q4U254
# Sequence (Q4U254 whole entry): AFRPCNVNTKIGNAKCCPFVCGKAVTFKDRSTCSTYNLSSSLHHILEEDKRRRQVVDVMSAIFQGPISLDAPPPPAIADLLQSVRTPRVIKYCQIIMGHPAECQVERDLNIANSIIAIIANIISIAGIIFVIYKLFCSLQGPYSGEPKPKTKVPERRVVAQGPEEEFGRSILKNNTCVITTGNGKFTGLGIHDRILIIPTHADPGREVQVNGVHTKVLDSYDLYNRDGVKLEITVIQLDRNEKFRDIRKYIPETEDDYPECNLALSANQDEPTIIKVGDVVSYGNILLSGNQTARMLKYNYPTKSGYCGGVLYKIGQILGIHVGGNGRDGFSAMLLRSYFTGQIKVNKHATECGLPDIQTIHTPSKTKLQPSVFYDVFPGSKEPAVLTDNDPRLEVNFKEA
Residues, ends and D or L forms follow the SMILES beside them. *: point of attachment. Cbz = O=C(OCc1ccccc1)*
metric: pEC50
Numbers only, as −log10 of the molar value.

Kindly give each listed record's pEC50.
1. CC(C)C[C@H](NC(=O)OCc1ccccc1)C(=O)N[C@@H](Cc1ccccc1)C(=O)N[C@H](C=O)CCC(N)=O (Cbz-Leu-Phe-Gln-aldehyde)
2. CC(C)C[C@H](NC(=O)OCc1ccccc1)C(=O)N[C@@H](Cc1ccccc1)C(=O)N[C@H](C=O)CC(=O)N(C)C (Cbz-Leu-Phe-Asp(NMe2)-aldehyde)

-- reply
[4.18, 5.89]
